Catalogue of compounds with associated log10 of EC50
# Assayed Target: UniProt:P11229
# Assay Text: mAChR M1 cell-based functional assay: calcium mobilization, positive allosteric modulator mode (increase in EC20 acetylcholine response)
# Condition Notes: Table 2; human M1; read-out: Human M1 EC50
Assay Metric: log10 of EC50 (log10 of the value in nM)

>>> observed("Cn1cc(-c2ccc(Cc3cc(C(=O)N[C@H]4CCOC4)nc4ccsc34)cn2)cn1")
2.99
>>> observed("Cn1cc(-c2ccc(Cc3cc(C(=O)NC4CCOCC4(C)C)nc4ccsc34)cc2)cn1 (stereo not shown)")
2.18
>>> observed("CC1CC(NC(=O)c2cc(Cc3ccc(-c4ccn(C)n4)nc3)c3c(ccn3C)n2)CC(C)O1 (stereo not shown)")
3.85
>>> observed("Cn1cc(-c2ccc(Cc3cc(C(=O)N[C@H]4CCOC[C@@H]4O)nc4ccsc34)cn2)cn1")
0.86
>>> observed("O=C(N[C@H]1COCC[C@@H]1O)c1cc(Cc2ccc(-c3cscn3)cc2)c2sccc2n1")
1.34
>>> observed("O=C(NC1CC2(COC2)C1)c1cc(Cc2ccc(-n3cccn3)cc2)c2sccc2n1")
1.63
>>> observed("Cn1ccc2nc(C(=O)NC3CCOCC3)cc(Cc3ccc(-c4cscn4)cc3)c21")
2.26
>>> observed("Cn1cc(-c2ccc(Cc3cc(C(=O)N[C@H]4CCOC[C@@H]4O)nc4ccsc34)cc2)cn1")
0.53
>>> observed("Cc1nc(-c2ccc(Cc3cc(C(=O)N[C@H]4CCC[C@@H]4O)nc4c(C)csc34)cc2)co1")
2.57
>>> observed("Cc1nc(-c2ccc(Cc3cc(C(=O)NC4CC(F)C4)nc4ccsc34)cc2)cs1 (stereo not shown)")
3.58
>>> observed("Cn1ccc(-c2ccc(Cc3cc(C(=O)NC4CC(F)(F)C4)nc4ccn(C)c34)cn2)n1")
3.25
>>> observed("O=C(N[C@H]1CCCC[C@@H]1O)c1cc(Cc2ccc(-c3cncs3)cc2)c2sccc2n1")
1.27
>>> observed("Cn1ccc(-c2ccc(Cc3cc(C(=O)NCC4CCO4)nc4ccsc34)cn2)n1 (stereo not shown)")
2.55
>>> observed("CO[C@@H]1CCCC[C@H]1NC(=O)c1cc(Cc2ccc(-n3cccn3)cc2)c2sccc2n1")
2.87
>>> observed("Cn1cc(-c2ccc(Cc3cc(C(=O)N[C@H]4CCOC[C@@H]4O)nc4ccn(C)c34)cn2)cn1")
1.07
>>> observed("CN1CCCC(NC(=O)c2cc(Cc3ccc(-c4cscn4)cc3)c3sccc3n2)C1 (stereo not shown)")
3.37
>>> observed("O=C(N[C@H]1CCCC[C@@H]1O)c1cc(Cc2c(F)cc(-c3cscn3)cc2F)c2sccc2n1")
2.43

* * *

# Assayed Target: human mAChR M1 (Homo sapiens)
# Assay Text: mAChR M1 cell-based functional assay: calcium mobilization, positive allosteric modulator mode (increase in EC20 acetylcholine response)
# Condition Notes: Table 2; human M1; read-out: Human M1 EC50
Property: EC50; scope: individual molecules
Assay Metric: EC50

>>> observed("Cc1nc(-c2ccc(Cc3cc(C(=O)NC4CCN5CCCC45)nc4ccsc34)cc2)cs1 (stereo not drawn) [Compound 197]")
"1380 nM"
>>> observed("Cn1cc(-c2ccc(Cc3cc(C(=O)NCC4CCOCC4)nc4ccsc34)cn2)cn1 [Compound 334]")
"103 nM"
>>> observed("Cn1cc(-c2ccc(Cc3cc(C(=O)NC4CCOCC4)nc4ccsc34)cc2)nn1 [Compound 229]")
"27.1 nM"

* * *

# Assayed Target: human mAChR M1 (Homo sapiens, UniProt P11229)
# Sequence (P11229 1-460): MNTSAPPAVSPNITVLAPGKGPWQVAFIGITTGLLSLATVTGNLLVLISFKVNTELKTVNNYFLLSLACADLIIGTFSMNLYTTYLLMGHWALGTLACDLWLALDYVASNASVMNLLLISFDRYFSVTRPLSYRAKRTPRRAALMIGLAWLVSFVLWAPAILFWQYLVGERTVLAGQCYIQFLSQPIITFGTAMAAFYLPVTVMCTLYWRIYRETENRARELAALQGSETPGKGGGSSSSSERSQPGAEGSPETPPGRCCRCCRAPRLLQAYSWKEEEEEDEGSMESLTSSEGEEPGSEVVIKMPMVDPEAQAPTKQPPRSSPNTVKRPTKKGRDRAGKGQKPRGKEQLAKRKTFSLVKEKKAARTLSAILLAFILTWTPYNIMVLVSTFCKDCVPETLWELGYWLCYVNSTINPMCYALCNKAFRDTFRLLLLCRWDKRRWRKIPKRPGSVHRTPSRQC
# Assay Text: mAChR M1 cell-based functional assay: calcium mobilization, positive allosteric modulator mode (increase in EC20 acetylcholine response)
# Condition Notes: Table 2; human M1; read-out: Human M1 Emax (%)
# Procedure: a. Cell Lines Expressing Muscarinic Acetylcholine Receptors Chinese hamster ovary (CHO-K1) cells stably expressing rat (r)M1 were purchased from the American Type Culture Collection and cultured according to their indicated protocol. […] Calcium flux was measured using the Functional Drug Screening System (FDSS) 6000 (Hamamatsu Corporation, Tokyo, Japan) as an increase in the fluorescent static ratio. […]
I'd appreciate it if you marked entries Yes when Emax is lower than 70% and No when it is not.

>>> classification("Cn1cc(-c2ccc(Cc3cc(C(=O)N[C@H]4CCCOC4)nc4ccsc34)cn2)cn1")
"No"
>>> classification("Cn1cc(-c2ccc(Cc3cc(C(=O)NCC4CCOCC4)nc4ccsc34)cn2)cn1")
"No"
>>> classification("Cn1cc(-c2ccc(Cc3cc(C(=O)N[C@@H]4COCC[C@H]4O)nc4ccsc34)cc2)nn1")
"No"
>>> classification("O=C(NC1CCCCC1)c1cc(Cc2ccc(-n3cccn3)cc2)c2sccc2n1")
"No"
>>> classification("Cn1cc(-c2ccc(Cc3cc(C(=O)NC4CCCOC4)nc4ccsc34)cc2)nn1 (centres unmarked)")
"No"
>>> classification("Cn1cc(-c2ccc(Cc3cc(C(=O)N[C@H]4COCC[C@@H]4O)nc4ccsc34)cn2)cn1")
"Yes"
>>> classification("Cc1csc2c(Cc3ccc(-n4cccn4)cc3)cc(C(=O)NC3CCN(C)CC3)nc12")
"Yes"
>>> classification("O=C(NC1CC2(COC2)C1)c1cc(Cc2c(F)cc(-c3cscn3)cc2F)c2sccc2n1")
"Yes"
>>> classification("Cn1ccc(-c2ccc(Cc3cc(C(=O)N[C@H]4CCC[C@@H]4O)nc4ccsc34)cc2)n1")
"No"

* * *

# Assayed Target: human mAChR M1 (Homo sapiens)
# Assay Text: mAChR M1 cell-based functional assay: calcium mobilization, positive allosteric modulator mode (increase in EC20 acetylcholine response)
# Condition Notes: Table 2; human M1; read-out: Human M1 Emax (%)
Assay Metric: Emax (%)

>>> observed("Cc1nc(-c2ccc(Cc3cc(C(=O)NC4CCCN(C)C4)nc4ccsc34)cc2)cs1 (centres unmarked)")
74.2
>>> observed("Cc1csc2c(Cc3ccc(-n4cccn4)cc3)cc(C(=O)NCC3CCOC3)nc12 (centres unmarked)")
79.2
>>> observed("Cc1csc2c(Cc3ccc(-n4cccn4)cc3)cc(C(=O)NCC3CCOCC3)nc12")
72.2
>>> observed("O=C(N[C@@H]1CCCC[C@H]1O)c1cc(Cc2ccc(C(F)(F)F)nc2)c2sccc2n1")
90.7
>>> observed("O=C(NC1CC2(COC2)C1)c1cc(Cc2ccc(-c3cscn3)cc2)c2sccc2n1")
88.5

* * *

# Assayed Target: UniProt P11229
# Assay Text: mAChR M1 cell-based functional assay: calcium mobilization, positive allosteric modulator mode (increase in EC20 acetylcholine response)
# Condition Notes: Table 2; human M1; read-out: Human M1 EC50
Assay Metric: EC50

>>> observed("Cc1nn(C)cc1-c1ccc(Cc2cc(C(=O)N[C@H]3CCCC[C@@H]3O)nc3ccsc23)cc1 [Compound 250]")
"> 10 µM"
>>> observed("CC1(O)CCN(C(=O)c2cc(Cc3ccc(-n4cccn4)cc3)c3sccc3n2)CC1 [Compound 82]")
"> 10 µM"
>>> observed("Cc1ccc(Cc2cc(C(=O)NC3COC3)nc3ccsc23)cn1 [Compound 258]")
"> 10 µM"

* * *

# Assayed Target: human mAChR M1 (Homo sapiens, UniProt P11229)
# Sequence (P11229 1-460): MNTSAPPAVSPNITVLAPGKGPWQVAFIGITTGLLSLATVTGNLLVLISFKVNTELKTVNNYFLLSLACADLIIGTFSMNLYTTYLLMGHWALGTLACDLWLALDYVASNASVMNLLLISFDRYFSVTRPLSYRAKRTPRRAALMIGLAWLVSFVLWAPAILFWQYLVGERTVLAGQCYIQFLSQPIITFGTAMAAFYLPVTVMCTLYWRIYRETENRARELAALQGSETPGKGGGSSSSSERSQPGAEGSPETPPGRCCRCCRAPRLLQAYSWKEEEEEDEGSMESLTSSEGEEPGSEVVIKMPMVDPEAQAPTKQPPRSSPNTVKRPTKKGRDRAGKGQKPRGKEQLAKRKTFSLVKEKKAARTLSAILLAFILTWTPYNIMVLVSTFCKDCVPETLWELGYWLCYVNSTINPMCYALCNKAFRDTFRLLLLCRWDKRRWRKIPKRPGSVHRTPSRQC
# Assay Text: mAChR M1 cell-based functional assay: calcium mobilization, positive allosteric modulator mode (increase in EC20 acetylcholine response)
# Condition Notes: Table 2; human M1; read-out: Human M1 Emax (%)
Listing of recorded Emax by entry.
Assay Metric: Emax (%)

>>> observed("O=C(N[C@H]1CC[C@@H]1O)c1cc(Cc2ccc(-c3nccs3)cc2)c2sccc2n1")
76.4
>>> observed("Cc1nc(-c2ccc(Cc3cc(C(=O)N[C@@H]4CCOC4)nc4ccsc34)cc2)cs1")
67.3
>>> observed("O=C(NCC1CCOC1)c1cc(Cc2ccc(-c3cncs3)cc2)c2sccc2n1 (stereo not shown)")
63
>>> observed("O=C(c1cc(Cc2ccc(-n3cccn3)cc2)c2sccc2n1)N1CCC[C@@H](O)C1")
33
>>> observed("O=C(N[C@@H]1CCOC[C@H]1O)c1cc(Cc2ccc(-n3cccn3)cc2)c2sccc2n1")
84.9
>>> observed("Cn1cc(-c2ccc(Cc3cc(C(=O)N[C@H]4CCOC[C@@H]4O)nc4ccsc34)cn2)cn1")
63.6
>>> observed("Cn1ccc(-c2ccc(Cc3cc(C(=O)NC4CC5(COC5)C4)nc4ccsc34)cn2)n1")
89.9
